Target: hFASN enzyme (full length) (Homo sapiens, UniProt P49327)
Construct: 10 μL hFASN enzyme (full length, 300 ng, purified in house); made in house
Sequence (P49327 whole entry): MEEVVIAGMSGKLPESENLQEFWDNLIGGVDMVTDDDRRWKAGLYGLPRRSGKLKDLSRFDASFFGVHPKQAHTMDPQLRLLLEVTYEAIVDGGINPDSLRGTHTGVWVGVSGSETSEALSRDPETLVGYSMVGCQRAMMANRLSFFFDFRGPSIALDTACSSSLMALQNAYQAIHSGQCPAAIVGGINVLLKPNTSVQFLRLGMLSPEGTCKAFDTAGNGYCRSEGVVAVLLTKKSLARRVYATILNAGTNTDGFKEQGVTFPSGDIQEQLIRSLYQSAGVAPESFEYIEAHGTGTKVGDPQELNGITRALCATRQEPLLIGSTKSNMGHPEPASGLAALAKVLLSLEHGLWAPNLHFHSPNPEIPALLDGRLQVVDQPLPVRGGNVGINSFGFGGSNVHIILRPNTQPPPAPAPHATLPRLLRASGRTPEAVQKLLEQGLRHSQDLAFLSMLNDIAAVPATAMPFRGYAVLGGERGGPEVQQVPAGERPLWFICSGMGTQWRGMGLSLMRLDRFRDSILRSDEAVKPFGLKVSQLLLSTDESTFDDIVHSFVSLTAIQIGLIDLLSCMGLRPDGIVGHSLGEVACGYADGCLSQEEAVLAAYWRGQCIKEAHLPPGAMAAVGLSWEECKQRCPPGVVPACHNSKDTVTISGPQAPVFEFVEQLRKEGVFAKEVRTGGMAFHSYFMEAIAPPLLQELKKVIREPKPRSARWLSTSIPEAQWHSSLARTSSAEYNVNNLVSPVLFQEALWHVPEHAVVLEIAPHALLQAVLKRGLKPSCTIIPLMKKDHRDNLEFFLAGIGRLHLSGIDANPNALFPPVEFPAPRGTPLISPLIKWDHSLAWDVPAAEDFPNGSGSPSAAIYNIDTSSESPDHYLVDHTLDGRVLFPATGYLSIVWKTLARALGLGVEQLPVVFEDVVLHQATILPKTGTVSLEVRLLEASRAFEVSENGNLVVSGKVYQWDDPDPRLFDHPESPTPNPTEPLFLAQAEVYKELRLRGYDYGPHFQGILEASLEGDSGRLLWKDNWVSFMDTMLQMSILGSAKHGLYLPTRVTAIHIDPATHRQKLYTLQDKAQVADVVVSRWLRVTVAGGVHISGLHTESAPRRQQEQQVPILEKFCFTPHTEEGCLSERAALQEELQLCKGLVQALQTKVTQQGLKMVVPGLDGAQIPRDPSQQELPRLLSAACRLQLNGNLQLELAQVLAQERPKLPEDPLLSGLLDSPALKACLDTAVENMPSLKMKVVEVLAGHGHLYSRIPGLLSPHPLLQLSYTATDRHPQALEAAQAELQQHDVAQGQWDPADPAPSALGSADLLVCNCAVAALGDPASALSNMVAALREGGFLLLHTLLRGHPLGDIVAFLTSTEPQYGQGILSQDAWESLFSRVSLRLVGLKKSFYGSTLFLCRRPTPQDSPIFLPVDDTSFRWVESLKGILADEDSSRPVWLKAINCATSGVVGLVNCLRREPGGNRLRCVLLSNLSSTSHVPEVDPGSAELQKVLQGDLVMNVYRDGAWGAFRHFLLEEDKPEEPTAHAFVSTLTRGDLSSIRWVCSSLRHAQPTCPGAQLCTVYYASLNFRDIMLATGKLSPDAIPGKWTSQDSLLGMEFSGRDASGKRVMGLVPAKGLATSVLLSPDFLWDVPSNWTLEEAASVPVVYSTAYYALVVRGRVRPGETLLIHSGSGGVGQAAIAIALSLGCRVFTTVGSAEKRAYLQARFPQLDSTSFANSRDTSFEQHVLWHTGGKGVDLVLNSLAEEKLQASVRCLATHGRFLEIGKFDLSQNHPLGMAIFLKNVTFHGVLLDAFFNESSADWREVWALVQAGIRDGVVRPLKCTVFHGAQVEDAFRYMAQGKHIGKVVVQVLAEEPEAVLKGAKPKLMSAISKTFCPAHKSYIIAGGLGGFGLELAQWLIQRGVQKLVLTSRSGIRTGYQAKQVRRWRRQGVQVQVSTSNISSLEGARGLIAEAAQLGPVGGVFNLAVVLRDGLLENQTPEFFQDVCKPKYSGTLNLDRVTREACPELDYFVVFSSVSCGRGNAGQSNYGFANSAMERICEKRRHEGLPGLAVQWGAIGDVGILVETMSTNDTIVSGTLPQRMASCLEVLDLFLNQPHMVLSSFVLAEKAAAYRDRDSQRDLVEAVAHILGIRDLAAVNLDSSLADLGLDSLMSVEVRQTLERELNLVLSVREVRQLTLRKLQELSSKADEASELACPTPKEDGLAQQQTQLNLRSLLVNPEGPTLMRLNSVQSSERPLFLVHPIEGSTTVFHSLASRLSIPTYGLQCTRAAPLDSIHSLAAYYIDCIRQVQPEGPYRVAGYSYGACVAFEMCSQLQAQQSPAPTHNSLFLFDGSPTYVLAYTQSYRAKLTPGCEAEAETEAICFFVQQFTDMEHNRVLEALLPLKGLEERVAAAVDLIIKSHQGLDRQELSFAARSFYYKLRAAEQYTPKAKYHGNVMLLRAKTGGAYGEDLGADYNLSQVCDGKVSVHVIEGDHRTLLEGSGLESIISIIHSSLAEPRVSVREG
Test: Fatty Acid Synthase (FASN) inhibition scintillation proximity assay
Format: biochemical
Settings: read-out: Human FASN pIC50 (converted)
PARAMETER: IC50 (nM)

# MOLECULE, IC50 (nM)
rows = [
    ("CC(C)C(=O)N1CCC2(CC1)N=C(c1ccc(-c3ccc4occc4c3)cc1)N(CC1CN(C(=O)C3CC3)C1)C2=O [compound 129]", 1170),
    ("CC(O)C(=O)N1CC[C@@H](CN2C(=O)C3(CCOC3)N=C2c2ccc(-c3ccc4cccnc4c3)cc2)C1 (stereo partly shown) [compound 681]", 295),
    ("Cc1cc(-c2ccc3c(c2)c(Cl)nn3C)ccc1C1=NC2(CC2)C(=O)N1CC1CN(C(=O)C2CC2)C1 [compound 591]", 195),
]

P. O=C(CC(F)(F)F)N1CC[C@@H](CN2C(=O)C3(CCCC3)N=C2c2ccc(-c3ccc4occc4c3)cc2)C1 [compound 119]
Q. CC1(C(=O)N2CC[C@@H](CN3C(=O)C4(CC4)N=C3c3ccc(-c4ccc5cc(F)ccc5c4)cc3F)C2)CC1 [compound 363]
**Q:** Higher IC50: P or Q ? Answer with the label corresponding to your selection.
**A:** P
(P: 174 nM, Q: 39.8 nM)
